- Procedure Details: change in splice reporter luminescence, either direction, cell-based, HEK293, spliceosome inhibition project, primary screen (AID 1101);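 further: HEK293 cells carrying a splicing-competent luciferase reporter gene; test concentration not given here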
- Experimental Conditions: HEK293 splicing luciferase reporter, 24 h, higher = more signal, called active from +8 up or from −8 down
Reported Endpoint: z-score

> print(dat)
                                   compound  reported.endpoint  recorded.result
1  C=CC[C@@H](OC(=O)Nc1ccc(OC)cc1)c1ccc(O)c(F)c1            z-score            -1.95
2  CC(C)C(O)C1C=CC2C(=O)N(c3ccccc3)C(=O)C2N1Nc1ccccc1 (stereo not given)            z-score           -0.307
3  CC(C)[Si](C#CCCCC#N)(O[C@H](c1ccccc1)c1cn(Cc2ccccc2)nn1)C(C)C            z-score            -1.08
4  O=C1CS(=O)(=O)C(c2cccc([N+](=O)[O-])c2)N1c1ccccc1 (stereo not given)            z-score           -0.856
5  CCCCC=C[C@@H](NC(=O)OCc1ccccc1Cl)c1ccccc1            z-score            0.233

* * *

- Procedure Details: growth effects on S. cerevisiae YJM789 – YJM789 clinical isolate, OD600, 24 h, basal, primary screen (AID 1089);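 further: growth of clinical yeast isolate S. cerevisiae YJM 789 seeded 1000 cells per well; test concentration not given here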
- Experimental Conditions: higher = more signal, called active from +8 up or from −8 down
Tag: t if measured z-score is not below 0.4, f if it is.

Molecule	Cat
C=CCOC(=O)[C@@]1(Cc2ccccc2)C[C@H]2CO[C@H](c3ccc(OC)cc3)N2C1=O	f
CCCC1(C(=O)OC)C=C2C(=C(C)C(=O)C2C)CN1 (stereo not given)	f
CC(C)N1C(=O)C[C@@](C(=O)NC2CC2)(c2ccc([N+](=O)[O-])cc2)[C@H]1c1ccc(CO)cc1	f
C=CC[C@@H](OC(=O)Nc1ccc(SC)cc1)c1ccc(O)c(F)c1	f
COc1ccc([Si](C)(C)[C@@H]2[C@@H](CC(=O)N(CCO)Cc3ccccc3)O[C@]3(C(=O)N(Cc4cccc(N5CCCCC5=O)c4)c4ccccc43)[C@H]2C)cc1	t
COc1ccc([Si](C)(C)[C@@H]2[C@@H](CCO)O[C@]3(C(=O)N(Cc4cccc(NC(=O)[C@H](C)O)c4)c4ccccc43)[C@H]2C)cc1	t
COCCOC(=O)N1C(=O)[C@@]2(c3cc(C#CC4(O)CCCCCC4)ccc31)[C@H](C(=O)N1CCc3cc(OC)c(OC)cc3C1)[C@H]1C(=O)O[C@H](c3ccccc3)[C@H](c3ccccc3)N1[C@@H]2c1ccc(OCCO)cc1	t
CCCCCN1CC=CC23O[C@@H]4/C=C\CCC(C)OC(=O)C4[C@H]2C(=O)N(C(CO)C(C)C)[C@@H]3C1=O (stereo not given in full)	f
CCOC(=O)C[C@H]1[C@H](OC(=O)c2cc3ccccc3oc2=O)[C@@H](NC(=O)c2ccc3ccccc3n2)c2cc(OCCCO)ccc2N1C(=O)Cc1ccc(OC)cc1	f
C=C(C(=O)CC[C@H](OC(=O)c1ccccc1-c1ccccc1C(=O)O)c1cccc(OCCO)c1)C(C)C	t
CCCCN1CC=CC23O[C@@H]4/C=C\CCC(C)OC(=O)C4[C@H]2C(=O)N(CCCO)[C@@H]3C1=O (stereo not given in full)	t
CCCC=C(CCC)[C@@H](NC(=O)c1cccs1)c1ccc(C(=O)OC)cc1	f
NCCCCCNC(=O)[C@H]1C[C@H]2C(=O)N3CCC[C@H]3C(=O)N2[C@H]1c1cccc(OCCO)c1	f
C=CCC(OC(C)=O)[C@@H]1[C@@H](N(Cc2cc3ccccc3o2)C(=O)Cc2ccc(F)cc2)c2cc(OCCCO)ccc2N1C(=O)Cc1ccc2ccccc2c1 (stereo not given in full)	f
COC(=O)[C@@H]1N=C(c2ccc(OCCCO)cc2)O[C@@H]1c1ccccc1	f

* * *

- Test system: Sam68 (KHDRBS1)
- Procedure Details: compounds binding KHDRBS1 protein – biochemical, small-molecule microarray, 635 nm fluorescence, primary screen (AID 1125);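 further: score merges 667 nm channel intensity with signal to noise over triplicate slides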
- Experimental Conditions: higher = more signal
Tag: t if measured composite z-score is not below -0.3, f if it is.

> print(dat)
                                   compound  cat
1  CC(C)=C1C(=O)C(c2ccccc2)=C2CN3C(=O)N(CCc4ccccc4)C(=O)[C@]3(Cc3ccc(C(F)(F)F)cc3)[C@H]21    f
2  COc1cc2c(cc1O)C=[N+](Cc1sc3ccccc3c1Cl)CC2    t
3  COC(=O)c1c(CC[C@@H](CO)NC(=O)N2CCC[C@H]2Cn2cc(C3(O)CCCCC3)nn2)oc(C(C)=O)c1C(=O)OC    t
4  Cc1ccc(NN2C(C(O)c3c(F)cccc3Cl)C=CC3C(=O)N(C4CCCCC4)C(=O)C32)cc1 (stereo not drawn)    t
5  CC(C)N1C(=O)C[C@@](C(=O)O)(c2ccc([N+](=O)[O-])cc2)[C@H]1c1ccc(CO)cc1    t
6  CC(C)C(CO)N1C(=O)[C@@H]2C3C(=O)OCCC/C=C\[C@H]3OC23C=CCN(c2ccc4ccccc4c2)C(=O)[C@@H]13 (stereo partly drawn)    f
7  CC(=O)NCCCC[C@@H]1NC(=O)[C@@H]2C[C@H](C(=O)NCCCCCN)[C@H](c3ccc(O)cc3)N2C1=O    t
8  CC(C)[Si](C#C[Si](C(C)C)(C(C)C)C(C)C)(O[C@H](c1ccccc1)c1cn(Cc2ccccc2)nn1)C(C)C    t

* * *

The entries below come with measured z-score values attached.
- Procedure Details: growth of efflux-deficient E. coli DRC39 – strain DRC39, OD650, 24 h, E. coli filamentation inducers, primary screen (AID 1178);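 further: growth measured as culture turbidity by optical density at 650 nm; test concentration not given here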
- Experimental Conditions: E. coli DRC39 acrAB, higher = more signal, called active from +8 up or from −8 down

Compound	z-score
COC(=O)[C@@]1(Cc2ccc(OC)cc2)[C@H]2c3cc(C(=O)N(C)C)n(Cc4ccc(OC(F)(F)F)cc4)c3C[C@H]2CN1C(=O)c1ccccc1	-0.728
CCOC(=O)C[C@H]1[C@H](OC(=O)c2ccccc2-c2ccccc2)[C@@H](NC(=O)c2ccc3ccccc3n2)c2cc(OCCCO)ccc2N1C(=O)Cc1ccc(OC)cc1	-0.42
O=C(NCCN1CCOCC1)[C@@H]1c2ccccc2C(=O)N(C2Cc3ccccc3C2)[C@H]1c1ccc(CO)cc1	0.638
COCCOC(=O)N1C(=O)[C@@]2(c3cc(C#CC4=CCCCC4)ccc31)[C@H](C(=O)Nc1nc3ccccc3s1)[C@H]1C(=O)O[C@H](c3ccccc3)[C@H](c3ccccc3)N1[C@@H]2c1ccc(O)cc1	-0.469
CCOC(=O)C1=CC[C@@H](c2ccccc2)N(S(=O)(=O)c2ccc(C)cc2)[C@H]1c1ccccc1	-0.544
CCCC=C(CCC)[C@@H](NS(=O)(=O)CC12CCC(CC1=O)C2(C)C)c1ccc(C(=O)OC)cc1 (stereo not given in full)	0.0384
COc1ccc([Si](C)(C)[C@@H]2[C@@H](CCO)O[C@]3(C(=O)N(Cc4ccccc4)c4ccc(NC(=O)[C@H](C)O)cc43)[C@H]2C)cc1	0.912
CC(=O)NCCCC[C@@H]1NC(=O)[C@@H]2C[C@H](C(=O)NCCCCCN)[C@H](c3ccc(O)cc3)N2C1=O	-0.139
CC(CO)N1C(=O)[C@]2(C)C3C(=O)OCCC/C=C\[C@H]3OC23C=CCN(c2ccc(Cl)cc2)C(=O)[C@@H]13 (stereo not given in full)	0.351
CC(C)N1CC=CC23O[C@@H]4C=CCCOC(=O)C4[C@H]2C(=O)N(CCCO)[C@@H]3C1=O (stereo not given in full)	-0.463
O=c1cccc(-c2ccc([N+](=O)[O-])cc2)o1	-0.0154
COc1cc(NN2C(C(O)c3ccc(N(C)C)cc3)C=CC3C(=O)N(c4ccccc4)C(=O)C32)cc(OC)c1OC (stereo not given)	-0.0722
C=CC[C@@]1(C(=O)NCCCOC)N=C(c2ccc(OCCCO)cc2)O[C@@H]1c1ccccc1	-0.12
NC(=O)NCC#Cc1ccc2c(c1)[C@]1(C(=O)N2)[C@H](c2ccccc2OCCO)N2[C@H](c3ccccc3)[C@H](c3ccccc3)OC(=O)[C@H]2[C@@H]1C(=O)NC[C@H](O)c1ccccc1	1.22
CCOC(=O)C[C@H]1[C@H](OC(=O)c2ccc(C(=O)c3ccccc3)cc2)[C@@H](NC(=O)C2CCCCC2)c2cc(OCCCO)ccc2N1C(=O)c1ccc2ccccc2n1	0.297

* * *

- Assayed Target: Dihydroorotate dehydrogenase (quinone), mitochondrial (Plasmodium falciparum (isolate 3D7)) (UniProt Q08210)
- Sequence (Q08210 whole entry, looked up): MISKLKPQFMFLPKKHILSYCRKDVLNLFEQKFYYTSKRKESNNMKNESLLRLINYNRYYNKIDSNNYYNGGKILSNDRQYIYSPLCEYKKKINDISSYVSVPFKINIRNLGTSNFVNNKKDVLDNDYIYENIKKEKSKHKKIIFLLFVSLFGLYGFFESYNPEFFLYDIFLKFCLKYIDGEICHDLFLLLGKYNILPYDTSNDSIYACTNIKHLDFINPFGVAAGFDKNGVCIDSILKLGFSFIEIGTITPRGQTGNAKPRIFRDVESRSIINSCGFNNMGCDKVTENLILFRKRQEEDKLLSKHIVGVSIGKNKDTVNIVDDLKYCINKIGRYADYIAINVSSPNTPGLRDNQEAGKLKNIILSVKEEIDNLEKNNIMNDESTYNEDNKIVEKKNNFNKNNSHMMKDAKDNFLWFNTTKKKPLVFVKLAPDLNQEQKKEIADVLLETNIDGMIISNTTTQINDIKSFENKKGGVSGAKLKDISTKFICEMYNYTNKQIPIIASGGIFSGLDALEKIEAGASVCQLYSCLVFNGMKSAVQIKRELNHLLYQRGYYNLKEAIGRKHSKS
- Procedure Details: inhibition of P. falciparum DHODH – biochemical, C-terminal His tag, absorbance 600 nm, primary screen (AID 1175);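 further: recombinant parasite enzyme with a five histidine tag at its C terminus; test concentration not given here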
- Experimental Conditions: PfDHODH enzyme, DCIP absorbance 600 nm; higher = more signal, called active from +8 up or from −8 down
Tag: met if measured composite z-score is not below -0.3, not met if it is.

Molecule	Cat
CC(C)N1C(=O)c2ccccc2[C@@H](C(=O)NCCN2CCOCC2)[C@@H]1c1ccc(CO)cc1	met
Cc1ccc(S[C@]2(C(=O)O)CC(=O)N(C3CCCCC3)[C@@H]2c2ccc(CO)cc2I)cc1	not met
Cn1cccc1C(O)C1C=CC2C(=O)N(c3ccccc3)C(=O)C2N1Nc1ccccc1 (stereo not given)	met
O=C(Cc1ccccc1)[C@H]1C2C=CCCC(c3ccccc3)=C2CN1Cc1ccccc1 (stereo not given in full)	not met
O=C(c1ccccc1)N1C(=O)[C@]2(Cc3ccccc31)N=C(c1ccc(OCCCO)cc1)O[C@@H]2c1ccccc1	met
O=C1N(CCS(=O)(=O)c2ccccc2)c2ccccc2[C@H]2OC(c3ccc(OCCCO)cc3)=N[C@@]12Cc1ccccc1	met
COc1ccc(C#Cc2ccc3c(c2)[C@]2(C(=O)N3)[C@H](C(=O)O)[C@H]3C(=O)O[C@H](c4ccccc4)[C@H](c4ccccc4)N3[C@@H]2c2ccc(O)cc2)cc1	not met
O=C1O[C@@H](c2ccccc2)[C@@H](c2ccccc2)N2[C@@H](c3ccc(O)cc3)[C@]3(C(=O)Nc4ccc(C#CCCO)cc43)[C@@H](C(=O)N3CCN(c4ncccn4)CC3)[C@H]12	met
COc1ccc([Si](C)(C)[C@@H]2[C@@H](CCO)O[C@]3(C(=O)N(Cc4ccccc4)c4ccc(NC(=O)[C@H](C)O)cc43)[C@H]2C)cc1	not met
[N-]=[N+]=Nc1ccccc1C[C@]1(C(=O)NCCN2CCOCC2)COC(c2ccc(OCCCO)cc2)=N1	met
[N-]=[N+]=Nc1ccccc1C[C@@]1(C(=O)NCCN2CCOCC2)N=C(c2ccc(OCCCO)cc2)O[C@@H]1c1ccccc1N=[N+]=[N-]	met
CCCC=C(CCC)[C@@H](NP(=O)(c1ccccc1)c1ccccc1)c1ccc(-c2ccccc2)cc1	met
CCCCCC1=C2CNC(C)(C(=O)OC)C=C2C(C)C1=O (stereo not given)	not met
Cc1ccc(S[C@]2(C(=O)NCC(F)(F)F)CC(=O)N(Cc3cc(C(F)(F)F)cc(C(F)(F)F)c3)[C@@H]2c2ccc(CO)cc2I)cc1	not met
COc1ccc([Si](C)(C)[C@@H]2[C@@H](CC(=O)N3CCC[C@H]3CO)O[C@]3(C(=O)N(Cc4cccc(N5C(=O)COc6ccccc65)c4)c4ccccc43)[C@H]2C)cc1	not met
